Value source: ChEMBL document CHEMBL5442219

# System: Sodium-dependent noradrenaline transporter (Homo sapiens) (UniProt P23975)
# Sequence (P23975 whole entry): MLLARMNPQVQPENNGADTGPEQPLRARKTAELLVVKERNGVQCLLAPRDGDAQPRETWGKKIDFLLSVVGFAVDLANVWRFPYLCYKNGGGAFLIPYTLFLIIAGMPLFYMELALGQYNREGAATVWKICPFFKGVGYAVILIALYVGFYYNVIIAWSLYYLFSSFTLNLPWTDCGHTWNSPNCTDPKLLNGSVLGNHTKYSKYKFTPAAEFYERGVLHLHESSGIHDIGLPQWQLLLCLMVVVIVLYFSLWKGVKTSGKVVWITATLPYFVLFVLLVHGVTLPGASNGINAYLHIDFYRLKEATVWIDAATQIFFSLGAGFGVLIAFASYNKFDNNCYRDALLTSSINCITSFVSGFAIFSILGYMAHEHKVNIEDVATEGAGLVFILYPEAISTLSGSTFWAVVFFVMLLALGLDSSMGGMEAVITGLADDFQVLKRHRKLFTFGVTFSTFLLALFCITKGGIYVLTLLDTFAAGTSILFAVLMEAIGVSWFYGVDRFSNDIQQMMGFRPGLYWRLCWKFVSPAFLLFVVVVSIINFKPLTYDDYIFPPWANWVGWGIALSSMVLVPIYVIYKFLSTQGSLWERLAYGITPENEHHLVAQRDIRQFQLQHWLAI
# Test Context: Compound concentration 10 µM
# Description: PDSP Primary Binding target: SLC6A2 - Compounds are tested at 10 uM concentration, plate are incubated at room temperature in the dark for 90 minutes. Reaction are stopped by vacuum filtration onto 0.3% polyethyleneimine soaked filter mats using Filtermate harvester. Scintilation cocktail is then melted onto microwave-dried filters on a hot plate and the radio activity is counted in Microbia counter.
Metric Name: inhibition (%)

Compound: O=C1N/C(=N/c2ccccc2F)S/C1=C\c1ccc(C(=O)O)cc1
System: Sodium-dependent noradrenaline transporter (Homo sapiens) (UniProt P23975)
Metric Name: inhibition
Unit Annotation: %
Measured Value: 9.3
--
Compound: NC[C@@H]1O[C@H](C23CC4CC(CC(C4)C2)C3)Cc2c1ccc(O)c2O
System: Sodium-dependent noradrenaline transporter (Homo sapiens) (UniProt P23975)
Metric Name: inhibition
Unit Annotation: %
Measured Value: 58.5
--
Compound: CN[C@@H]1CCc2[nH]c3ccc(C(N)=O)cc3c2C1
System: Sodium-dependent noradrenaline transporter (Homo sapiens) (UniProt P23975)
Metric Name: inhibition
Unit Annotation: %
Measured Value: -1.01
--
Compound: CN1CCC(=C2c3ccccc3CC(=O)c3sccc32)CC1
System: Sodium-dependent noradrenaline transporter (Homo sapiens) (UniProt P23975)
Metric Name: inhibition
Unit Annotation: %
Measured Value: 45.1
--
Compound: Cc1nc2sccn2c(=O)c1CCN1CCC(=C(c2ccc(F)cc2)c2ccc(F)cc2)CC1
System: Sodium-dependent noradrenaline transporter (Homo sapiens) (UniProt P23975)
Metric Name: inhibition
Unit Annotation: %
Measured Value: 53.7
--
Compound: Cc1ccc2c(c1)c1c(n2CCc2ccc(C)nc2)CCN(C)C1
System: Sodium-dependent noradrenaline transporter (Homo sapiens) (UniProt P23975)
Metric Name: inhibition
Unit Annotation: %
Measured Value: -7.44
--
Compound: Cc1csc(NC(=O)c2cc(F)cc(Oc3cncnc3)c2)n1
System: Sodium-dependent noradrenaline transporter (Homo sapiens) (UniProt P23975)
Metric Name: inhibition
Unit Annotation: %
Measured Value: 10.9
--
Compound: O=c1ccn([C@@H]2O[C@H](COP(=O)(O)OP(=O)(O)OP(=O)(O)O)[C@@H](O)[C@H]2O)c(=O)[nH]1
System: Sodium-dependent noradrenaline transporter (Homo sapiens) (UniProt P23975)
Metric Name: inhibition
Unit Annotation: %
Measured Value: 11
--
Compound: N#Cc1ccc(NC(=O)Nc2ccccc2Br)c2nn[nH]c12
System: Sodium-dependent noradrenaline transporter (Homo sapiens) (UniProt P23975)
Metric Name: inhibition
Unit Annotation: %
Measured Value: 35.6
--
Compound: COc1cccc([C@H](O)C2CCN(CCc3ccc(F)cc3)CC2)c1OC
System: Sodium-dependent noradrenaline transporter (Homo sapiens) (UniProt P23975)
Metric Name: inhibition
Unit Annotation: %
Measured Value: 45.2
--
Compound: CC(C)[C@H](CO)Nc1nc(Nc2cccc(Cl)c2)c2ncn(C(C)C)c2n1
System: Sodium-dependent noradrenaline transporter (Homo sapiens) (UniProt P23975)
Metric Name: inhibition
Unit Annotation: %
Measured Value: 54.1
--
Compound: Cc1cc(NC(=O)Nc2ccc(N(C)C)cc2)c2cc(F)cc(F)c2n1
System: Sodium-dependent noradrenaline transporter (Homo sapiens) (UniProt P23975)
Metric Name: inhibition
Unit Annotation: %
Measured Value: 35.9
--
Compound: CN1CCN(c2ccc(Nc3c4ccccc4nc4ccccc34)cc2)CC1
System: Sodium-dependent noradrenaline transporter (Homo sapiens) (UniProt P23975)
Metric Name: inhibition
Unit Annotation: %
Measured Value: 84.7
--
Compound: CCCCc1nc(Cl)c(CO)n1Cc1ccc(-c2ccccc2-c2nnn[nH]2)cc1
System: Sodium-dependent noradrenaline transporter (Homo sapiens) (UniProt P23975)
Metric Name: inhibition
Unit Annotation: %
Measured Value: 11.8
--
Compound: N#Cc1c(O)nc(SCc2cccc(F)c2F)nc1C1CC1
System: Sodium-dependent noradrenaline transporter (Homo sapiens) (UniProt P23975)
Metric Name: inhibition
Unit Annotation: %
Measured Value: -1.64
--
Compound: Nc1nc(NCCc2ccc(O)cc2)nc2nc(-c3ccco3)nn12
System: Sodium-dependent noradrenaline transporter (Homo sapiens) (UniProt P23975)
Metric Name: inhibition
Unit Annotation: %
Measured Value: 44.1
--
Compound: CCCNS(=O)(=O)Nc1ncnc(OCCOc2ncc(Br)cn2)c1-c1ccc(Br)cc1
System: Sodium-dependent noradrenaline transporter (Homo sapiens) (UniProt P23975)
Metric Name: inhibition
Unit Annotation: %
Measured Value: 53.5
--
Compound: CC(C)NCC(O)COc1cccc2[nH]ccc12 (stereo unspecified)
System: Sodium-dependent noradrenaline transporter (Homo sapiens) (UniProt P23975)
Metric Name: inhibition
Unit Annotation: %
Measured Value: 27.1
--
Compound: CC1CCN(CC[C@H]2CCCN2S(=O)(=O)c2cccc(O)c2)CC1
System: Sodium-dependent noradrenaline transporter (Homo sapiens) (UniProt P23975)
Metric Name: inhibition
Unit Annotation: %
Measured Value: 30.6
--
Compound: CN1C[C@H](C(=O)N[C@]2(C)O[C@@]3(O)[C@@H]4CCCN4C(=O)[C@H](Cc4ccccc4)N3C2=O)C[C@@H]2c3cccc4[nH]cc(c34)C[C@H]21
System: Sodium-dependent noradrenaline transporter (Homo sapiens) (UniProt P23975)
Metric Name: inhibition
Unit Annotation: %
Measured Value: 21.2
--
Compound: COc1ccnc(N2CCC3(CCCN(Cc4c[nH]c5ccccc45)C3=O)CC2)n1
System: Sodium-dependent noradrenaline transporter (Homo sapiens) (UniProt P23975)
Metric Name: inhibition
Unit Annotation: %
Measured Value: 16.6
